system: T1, Monomeric cynomolgus PD-L1 (Acro Biosciences PD1-C52H4) (cynomolgus, UniProt Q9NZQ7 19-238 (human entry))
T1 construct: also called cynomolgus monomeric PD-L1
T1 sequence (Q9NZQ7 other isoform, or with tags, fused parts or gaps limits assumed): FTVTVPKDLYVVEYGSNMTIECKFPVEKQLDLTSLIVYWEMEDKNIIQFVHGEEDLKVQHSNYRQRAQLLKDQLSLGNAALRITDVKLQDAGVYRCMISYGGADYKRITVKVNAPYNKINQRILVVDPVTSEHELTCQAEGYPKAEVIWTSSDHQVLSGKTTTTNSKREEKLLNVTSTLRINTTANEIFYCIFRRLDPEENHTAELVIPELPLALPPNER
method.summary: SPR Biacore T200, Fcab captured on protein A chip, monomeric antigen in flow, 1:1 fit
measured.quantity: Kd (nM)
Write it as a number; the unit nM goes unstated.

>  <binder>
Fcab FS17-33-289 (designed binder) TCPPCPAPELLGGPSVFLFPPKPKDTLMISRTPEVTCVVVDVSHEDPEVKFNWYVDGVEVHNAKTKPREEQYNSTYRVVSVLTVLHQDWLNGKEYKCKVSNKALPAPIEKTISKAKGQPREPQVYTLPPSRDESGYWVSLTCLVKGFYPSDIVVEWESNGEPQYWAKTTPPVLDSDGSFFLYSKLTVSNWRWQLDDFSCSVMHEALHNHYTQKSLSLSPGK

>  <measured.quantity>
Kd

>  <measured>
0.66

$$$$

Q: Need Kd of Fcab FS17-33-334 (designed binder) TCPPCPAPELLGGPSVFLFPPKPKDTLMISRTPEVTCVVVDVSHEDPEVKFNWYVDGVEVHNAKTKPREEQYNSTYRVVSVLTVLHQDWLNGKEYKCKVSNKALPAPIEKTISKAKGQPREPQVYTLPPSRDESGYWVSLTCLVKGFYPSDIAVEWESNGEPQYWAKTTPPVLDSDGSFFLYSKLTVSNWRWQLDDFSCSVMHEALHNHYTQKSLSLSPGK , thanks.
Result: 2.18
